- systemName: T1, human LILRB4 (human, UniProt Q8NHJ6 22-448)
- T1 construct: whole, on cells; also called hLILRB4
- assayProtocol: FACS, 293F-hLILRB4 cells
- Method: The subcloning plates were screened by protein or cell-based ELISA, and the subclones with good binding ability were expanded to 24-wells for confirmation tests. The specificity and cross-reactivity of these subclones were confirmed with FACS analysis. […] Fluorescent dye-conjugated secondary antibody was used to detect the binding of the primary antibody with the cells. Median fluorescence intensity (MFI) was measured by FACS analysis. […]
Provide the reported MFI of each item.
Give bare numbers, in MFI.

Give MFI for each listed item.
1. 27-F11-E10-G10 (antibody, V domains shown, mouse monoclonal hybridoma antibody) VH: EVQLVESGGGLVQPGGSRKLSCAASGFTFSSFGMHWVRQAPEKGLEWVAYISSGSSTIYYADTVKGRFSISRDNPKNTLFLQMTSLRSEDTAMFYCARSTGTGAMDYWGQGTSVTVSS VL: DIQMTQTTSSLSASLGDRVTISCRASQDISNYLNWYQQKPDGTVKLLIYYTSRLHSGVPSRFSGSGSGTDYSLTISNLEQEDIATYFCQQGNTLPWTFGGGTKLELK
2. 10-H9-E3-G3 (antibody, V domains shown, mouse monoclonal hybridoma antibody) VH: EVQRVESGGGLVQPGGSRKLSCAASGFTFSSFGMHWVRQAPEKGLEWVAYISSGSSAMYYADTVKGRFTISRDNPKNTLFLQMTSLRSEDTAMYYCARSDGKGAMDYWGQGTSVTVSS VL: DIQMTQTTSSLSASLGDRVTISCRASQDISNYLNWYQQKPDGTVKLLVYYTSRLHSGVPSRFSGSGSGTDYSLTISNLEQEDIATYFCQQGNTLPWTFGGGTKLEIK
3. 25-E7-A10-H6 (antibody, V domains shown, mouse monoclonal hybridoma antibody) VH: EVQLVESGGGLVQPGGSRKLSCAASGFTFSTFGMHWVRQAPEKGLEWVAYISSGSSTIYYADTVKGRFTISRDNPKNTLFLQMTSLRSEDTAMYYCARSTGTGAMDYWGQGTSVTVSS VL: DIQMTQTTSSLSASLGDRVTISCRASQDISKYLNWYQQKPDGTVKLLIYYTSRLHSGVPSRFSGSGSGTDYSLTISNLEQEDIATYFCQQGNTLPWTFGGGTKLEIK

512
210
759
